For each record, write down the corresponding viability, T/C.
tested on: KRAS-mutant PDC multicell tumor spheroid viability; assay: Anticancer human tumor 521955-158-R2-J5-PDC patient-derived pancreatic carcinoma cell line growth inhibition [KRAS2]; conditions: second compound 1 µM; first compound 0.1 µM; hits give low values
Respond numerically; units are % and should not be typed.

Entry O=C(c1cc(Cc2n[nH]c(=O)c3ccccc23)ccc1F)N1CCN(C(=O)C2CC2)CC1 + C=CC(=O)N1CCN(c2nc(OCC3CCCN3C)nc3c2CCN(c2cccc4cccc(C)c24)C3)CC1CC#N : viability, T/C on KRAS-mutant PDC multicell tumor spheroid viability = 101

Value (viability, T/C, KRAS-mutant PDC multicell tumor spheroid viability) for record CC(C)NCC(C(=O)N1CCN(c2ncnc3c2C(C)CC3O)CC1)c1ccc(Cl)cc1 (stereo not given) + C=CC(=O)N1CCN(c2nc(OCC3CCCN3C)nc3c2CCN(c2cccc4cccc(C)c24)C3)CC1CC#N = 80.4

Bench note, KRAS-mutant PDC multicell tumor spheroid viability: entry COc1cc(Nc2ncc3c(n2)-c2ccc(Cl)cc2C(c2c(F)cccc2OC)=NC3)ccc1C(=O)O + C=CC(=O)N1CCN(c2nc(=O)n(-c3c(C)ccnc3C(C)C)c3nc(-c4c(O)cccc4F)c(F)cc23)C(C)C1 , its viability, T/C = 44.8

Bench note, KRAS-mutant PDC multicell tumor spheroid viability: CCNC(=O)CC1N=C(c2ccc(Cl)cc2)c2cc(OC)ccc2-n2c(C)nnc21 (stereo not given) + C=CC(=O)N1CCN(c2nc(OCC3CCCN3C)nc3c2CCN(c2cccc4cccc(C)c24)C3)CC1CC#N , viability, T/C reads 77

Here Cn1nccc1Nc1nccc(-c2cc3c(s2)C(C)(C)N(CCN2CCOCC2)C3=O)n1 + CC1OCC2(CCN(c3cnc(Sc4ccnc(N)c4Cl)c(N)n3)CC2)C1N was tested on KRAS-mutant PDC multicell tumor spheroid viability, and its viability, T/C came to 66.9

---

Consider the following compounds; for each one, report its viability, T/C.
test system: KRAS-mutant PDC multicell tumor spheroid viability; assay: Anticancer human tumor 521955-158-R2-J5-PDC cell line growth inhibition [KRAS2]; conditions: second compound 3.16 µM; first compound 0.1 µM; hits give low values;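 also: viability read after seven days of drug exposure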
A number alone suffices; assume %.

viability, T/C in this record for CC(C)n1nc(-c2ccc3oc(N)nc3c2)c2c(N)ncnc21 + COc1cc2nc(C)nc(NC(C)c3cc(N)cc(C(F)(F)F)c3)c2cc1OC1CCOC1 : 20.2

Just so you know, measured viability, T/C for Cn1ncnc1[C@H]1c2n[nH]c(=O)c3cc(F)cc(c23)N[C@@H]1c1ccc(F)cc1 + CNCc1ccccc1-c1csc(C(C)Nc2nc(C)nc3cc(OC)c(OC)cc23)c1 came out at 0.26

Memo: CCN1CCN(Cc2ccc(Nc3ncc(F)c(-c4cc(F)c5nc(C)n(C(C)C)c5c4)n3)nc2)CC1 + C=CC(=O)N1CCN(c2nc(OCC3CCCN3C)nc3c2CCN(c2cccc4cccc(C)c24)C3)CC1CC#N , reported viability, T/C: 11.1

---

system: KRAS-mutant PDC multicell tumor spheroid viability; test: Anticancer human tumor 521955-158-R2-J5-PDC cell line growth inhibition [KRAS2]; details: second compound 0.1 µM; first compound 0.1 µM; hits give low values;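 also: viability read after seven days of drug exposure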
Threshold check on viability, T/C: strictly below 70% is Criterion met; on or above 70% is Criterion not met.

Q: Hello, I'm reviewing records and need to know if viability, T/C of CN(C)C/C=C/C(=O)Nc1cc2c(Nc3ccc(F)c(Cl)c3)ncnc2cc1O[C@H]1CCOC1 + C=CC(=O)N1CCN(c2nc(OCC3CCCN3C)nc3c2CCN(c2cccc4cccc(C)c24)C3)CC1CC#N is below 70%. Could you check?
Ans: Criterion not met

Q: Identify whether the compound CC(C)n1nc(-c2ccc3oc(N)nc3c2)c2c(N)ncnc21 + COc1cc2nc(C)nc(NC(C)c3cc(N)cc(C(F)(F)F)c3)c2cc1OC1CCOC1 records viability, T/C below 70%.
Ans: Criterion met

Q: viability, T/C under 70%? Item: COc1cc(Nc2ncc3c(n2)-c2ccc(Cl)cc2C(c2c(F)cccc2OC)=NC3)ccc1C(=O)O + C=CC(=O)N1CCN(c2nc(OCC3CCCN3C)nc3c2CCN(c2cccc4cccc(C)c24)C3)CC1CC#N
Ans: Criterion met

Q: Hello, is viability, T/C of the following compound strictly smaller than 70%? CC(C)n1nc(-c2ccc3oc(N)nc3c2)c2c(N)ncnc21 + C=CC(=O)N1CCN(c2nc(OCC3CCCN3C)nc3c2CCN(c2cccc4cccc(C)c24)C3)CC1CC#N
Ans: Criterion met

Q: Does CC(C)NCC(C(=O)N1CCN(c2ncnc3c2C(C)CC3O)CC1)c1ccc(Cl)cc1 (stereo unspecified) + CC1OCC2(CCN(c3cnc(Sc4ccnc(N)c4Cl)c(N)n3)CC2)C1N have viability, T/C strictly under 70%?
Ans: Criterion not met

Q: # strict comparison: is reported viability, T/C < 70%? input = CC(C)n1nc(-c2ccc3oc(N)nc3c2)c2c(N)ncnc21 + C=CC(=O)N1CCN(c2nc(=O)n(-c3c(C)ccnc3C(C)C)c3nc(-c4c(O)cccc4F)c(F)cc23)C(C)C1
Ans: Criterion met

Q: Is viability, T/C strictly under 70% for the entry CC(C)NCC(C(=O)N1CCN(c2ncnc3c2C(C)CC3O)CC1)c1ccc(Cl)cc1 (stereo unspecified) + CNCc1ccccc1-c1csc(C(C)Nc2nc(C)nc3cc(OC)c(OC)cc23)c1 ?
Ans: Criterion not met

Q: Is it true that viability, T/C reported for CC(=O)OC12COC1CC(O)C1(C)C(=O)C(O)C3=C(C)C(OC(=O)C(O)C(NC(=O)OC(C)(C)C)c4ccccc4)CC(O)(C(OC(=O)c4ccccc4)C21)C3(C)C (stereo unspecified) + C=CC(=O)N1CCN(c2nc(OCC3CCCN3C)nc3c2CCN(c2cccc4cccc(C)c24)C3)CC1CC#N is less than 70%?
Ans: Criterion met

Q: Record Cn1nccc1Nc1nccc(-c2cc3c(s2)C(C)(C)N(CCN2CCOCC2)C3=O)n1 + COc1cc2nc(C)nc(NC(C)c3cc(N)cc(C(F)(F)F)c3)c2cc1OC1CCOC1 : is its viability, T/C strictly below 70%?
Ans: Criterion not met

Q: # strict comparison: is reported viability, T/C < 70%? input = CCN1CCN(Cc2ccc(Nc3ncc(F)c(-c4cc(F)c5nc(C)n(C(C)C)c5c4)n3)nc2)CC1 + COc1cc2nc(C)nc(NC(C)c3cc(N)cc(C(F)(F)F)c3)c2cc1OC1CCOC1
Ans: Criterion not met
